Reported SMARCA4 Dmax values are given for each entry in this list.
Target Entity: SMARCA4 (Homo sapiens)
Sequence (P51532 whole entry): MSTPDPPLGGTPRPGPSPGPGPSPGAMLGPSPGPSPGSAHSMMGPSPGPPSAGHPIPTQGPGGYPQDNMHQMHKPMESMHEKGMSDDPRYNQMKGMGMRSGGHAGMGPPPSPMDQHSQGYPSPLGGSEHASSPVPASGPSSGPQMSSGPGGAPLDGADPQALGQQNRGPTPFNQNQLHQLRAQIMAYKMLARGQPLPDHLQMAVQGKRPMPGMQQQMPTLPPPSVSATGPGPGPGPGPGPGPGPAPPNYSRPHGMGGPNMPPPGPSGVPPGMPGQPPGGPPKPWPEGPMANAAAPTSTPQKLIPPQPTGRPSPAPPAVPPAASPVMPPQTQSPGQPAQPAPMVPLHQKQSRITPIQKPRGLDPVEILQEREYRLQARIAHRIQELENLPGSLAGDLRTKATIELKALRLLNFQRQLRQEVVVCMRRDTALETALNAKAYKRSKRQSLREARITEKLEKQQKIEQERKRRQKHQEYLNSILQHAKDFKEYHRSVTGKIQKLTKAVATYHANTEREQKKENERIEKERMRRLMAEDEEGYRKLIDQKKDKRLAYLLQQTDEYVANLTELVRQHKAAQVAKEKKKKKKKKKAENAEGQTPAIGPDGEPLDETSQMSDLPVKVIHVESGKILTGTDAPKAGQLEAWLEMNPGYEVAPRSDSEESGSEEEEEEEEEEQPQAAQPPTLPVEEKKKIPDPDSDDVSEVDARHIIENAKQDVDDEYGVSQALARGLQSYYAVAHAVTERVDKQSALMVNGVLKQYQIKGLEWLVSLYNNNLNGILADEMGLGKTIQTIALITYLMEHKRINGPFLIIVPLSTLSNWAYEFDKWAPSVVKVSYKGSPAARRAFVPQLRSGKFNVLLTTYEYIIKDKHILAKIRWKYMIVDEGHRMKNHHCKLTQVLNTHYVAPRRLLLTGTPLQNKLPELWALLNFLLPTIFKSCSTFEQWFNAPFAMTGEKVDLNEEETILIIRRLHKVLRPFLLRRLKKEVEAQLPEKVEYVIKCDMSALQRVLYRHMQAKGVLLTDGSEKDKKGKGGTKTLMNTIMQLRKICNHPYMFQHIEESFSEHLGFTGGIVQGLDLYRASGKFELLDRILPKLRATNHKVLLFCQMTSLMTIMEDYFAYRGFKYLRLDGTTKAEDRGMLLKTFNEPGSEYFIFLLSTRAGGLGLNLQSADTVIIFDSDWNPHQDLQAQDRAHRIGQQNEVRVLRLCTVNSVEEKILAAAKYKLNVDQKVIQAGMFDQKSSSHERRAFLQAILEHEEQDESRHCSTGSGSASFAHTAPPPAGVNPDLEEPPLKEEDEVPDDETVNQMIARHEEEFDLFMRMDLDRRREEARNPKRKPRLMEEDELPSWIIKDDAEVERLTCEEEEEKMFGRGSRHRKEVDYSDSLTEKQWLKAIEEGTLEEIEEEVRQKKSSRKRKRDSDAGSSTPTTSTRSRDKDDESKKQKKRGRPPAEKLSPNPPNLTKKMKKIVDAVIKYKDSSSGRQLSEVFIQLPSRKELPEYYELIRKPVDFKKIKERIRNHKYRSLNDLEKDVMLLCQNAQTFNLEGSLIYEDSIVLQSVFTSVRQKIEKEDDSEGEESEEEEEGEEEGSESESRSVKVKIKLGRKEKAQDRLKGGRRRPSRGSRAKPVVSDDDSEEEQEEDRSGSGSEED
Assay Overview: SMARCA4 capillary electrophoresis protein assay in RKO cells
Type: cell-based
Set-up: endogenous in cells; host or cells: RKO, HCT116, LU99, HCC-364, HCT-15, HCC4006, SK-N-AS
Protocol Conditions: RKO (4 h); mean ± SD
Attribute Measured: SMARCA4 Dmax (%)

Cc1ncsc1-c1ccc(CNC(=O)[C@@H]2C[C@@H](O)CN2C(=O)[C@@H](NC(=O)C2(F)CC2)C(C)(C)C)c(OCCOCCOCCOCCN2CCC(c3ccc4c(c3)n(C3CCCC3)c3nc(=O)c5c(Br)cccc5n43)CC2)c1 [compound 22] : 84
Cc1ncsc1-c1ccc([C@H](COCCCN2CCC(c3ccc4c(c3)n(C3CCCC3)c3nc(=O)c5c(Br)cccc5n43)CC2)NC(=O)[C@@H]2C[C@@H](O)CN2C(=O)[C@@H](NC(=O)C2(F)CC2)C(C)(C)C)cc1 [compound 27] : 55
Cc1ncsc1-c1ccc(CNC(=O)[C@@H]2C[C@@H](O)CN2C(=O)[C@@H](NC(=O)C2(F)CC2)C(C)(C)C)c(OCCOCCOCCN2CCC(c3ccc4c(c3)n(C3CCCC3)c3nc(=O)c5c(Br)cccc5n43)CC2)c1 [compound 21] : 61
Cc1ncsc1-c1ccc([C@H](CC[C@@H](C)CCN2CCC(c3ccc4c(c3)n(C3CCCC3)c3nc(=O)c5c(Br)cccc5n43)CC2)NC(=O)[C@@H]2C[C@@H](O)CN2C(=O)[C@@H](NC(=O)C2(F)CC2)C(C)(C)C)cc1 [compound 29] : 68

----------
Assay Overview: Microsomal stability
Type: in vitro ADME
Protocol Conditions: mouse liver microsomes
Attribute Measured: Mic. Stab. Mouse QH

Cc1ncsc1-c1ccc([C@H](CC[C@H](C)CCN2CCC(c3ccc4c(c3)n(C3CCCC3)c3nc(=O)c5c(Br)cccc5n43)CC2)NC(=O)[C@@H]2C[C@H](O)CN2C(=O)[C@@H](NC(=O)C2(F)CC2)C(C)(C)C)cc1 [compound 12] : <24.200 NADPH control off limits %
Cc1ncsc1-c1ccc([C@H](CCCCN2CCC(c3ccc4c(c3)n(C3CCCC3)c3nc(=O)c5c(Br)cccc5n43)CC2)NC(=O)[C@@H]2C[C@@H](O)CN2C(=O)[C@@H](NC(=O)C2(F)CC2)C(C)(C)C)cc1 [compound 25] : <24.200%
O=c1nc2n(C3CCCC3)c3cc(C4CCNCC4)ccc3n2c2cccc(Br)c12 [compound 4] : 25.670%
O=c1nc2n(C3CCCC3)c3ccccc3n2c2cccc(Br)c12 [compound 1] : 86.850%
Cc1ncsc1-c1ccc(CNC(=O)[C@@H]2C[C@H](O)CN2C(=O)[C@@H](NC(=O)C2(F)CC2)C(C)(C)C)c(OCCN2CCC(c3ccc4c(c3)n(C3CCCC3)c3nc(=O)c5c(Br)cccc5n43)CC2)c1 [compound 19] : 67.500%
Cc1ncsc1-c1ccc([C@H](CC[C@@H](C)CCN2CCC(c3ccc4c(c3)n(C3CCCC3)c3nc(=O)c5c(Br)cccc5n43)CC2)NC(=O)[C@@H]2C[C@@H](O)CN2C(=O)[C@@H](NC(=O)C2(F)CC2)C(C)(C)C)cc1 [compound 29] : <24.200 <24.200%
Cc1ncsc1-c1ccc(CNC(=O)[C@@H]2C[C@@H](O)CN2C(=O)[C@@H](NC(=O)C2(F)CC2)C(C)(C)C)c(OCCOCCOCCOCCN2CCC(c3ccc4c(c3)n(C3CCCC3)c3nc(=O)c5c(Br)cccc5n43)CC2)c1 [compound 22] : 57.720%
Cc1ncsc1-c1ccc(C(CCC(C)CCN2CCC(c3ccc4c(c3)n(C3CCCC3)c3nc(=O)c5c(Br)cccc5n43)CC2)NC(=O)C2CC(O)CN2C(=O)C(NC(=O)C2(F)CC2)C(C)(C)C)cc1 (centres unmarked) [ACBI2] : <24.200 <24.200 <24.200 <24.200%
Cc1ncsc1-c1ccc(CNC(=O)[C@@H]2C[C@@H](O)CN2C(=O)[C@@H](NC(=O)C2(F)CC2)C(C)(C)C)c(OCCCCN2CCC(c3ccc4c(c3)n(C3CCCC3)c3nc(=O)c5c(Br)cccc5n43)CC2)c1 [compound 23] : 42.090%
Cc1ncsc1-c1ccc([C@H](CCC(C)(C)CCN2CCC(c3ccc4c(c3)n(C3CCCC3)c3nc(=O)c5c(Br)cccc5n43)CC2)NC(=O)[C@@H]2C[C@@H](O)CN2C(=O)[C@@H](NC(=O)C2(F)CC2)C(C)(C)C)cc1 [compound 30] : <24.200%

----------
Assay Overview: Cell viability assay (CellTiter Glo) in a panel of cell lines;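 note: percent of DMSO-treated control cells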
Type: cell-based, human
Protocol Conditions: human, LXFL 1121L cells, LXFL_1121L; log10 conc -7 mol/l
Attribute Measured: viability at 0.1 µM (%)

Cc1ncsc1-c1ccc(C(CCC(C)CCN2CCC(c3ccc4c(c3)n(C3CCCC3)c3nc(=O)c5c(Br)cccc5n43)CC2)NC(=O)C2CC(O)CN2C(=O)C(NC(=O)C2(F)CC2)C(C)(C)C)cc1 (stereo not shown) : 89.5

----------
Assay Overview: Bidirectional permeability measurement in Caco-2 cells
Assay type: in vitro ADME
Protocol Conditions: human, Caco-2, pH 7.4, Caco-2; read-out: Caco-2 Efflux ratio
Attribute Measured: efflux ratio at 2 h, 1 µM

O=c1nc2n(C3CCCC3)c3cc(C4CCNCC4)ccc3n2c2cccc(Br)c12 [compound 4] : 12.8
O=c1nc2n(C3CCCC3)c3ccccc3n2c2cccc(Br)c12 [compound 1] : 0.774
CN1CCC(c2ccc3c(c2)n(C2CCCC2)c2nc(=O)c4c(Br)cccc4n32)CC1 [compound 3] : 0.768
Cc1ncsc1-c1ccc([C@H](COC(C)CN2CCC(c3ccc4c(c3)n(C3CCCC3)c3nc(=O)c5c(Br)cccc5n43)CC2)NC(=O)[C@@H]2C[C@@H](O)CN2C(=O)[C@@H](NC(=O)C2(N(C)C)CC2)C(C)(C)C)cc1 (some centres unmarked) [compound 10] : 4.64
Nc1cccc2c1c(=O)nc1n(C3CCCC3)c3ccccc3n21 [compound 2] : 0.459

----------
Listed compounds paired with reported EC50
Target Entity: VCB: PROTAC: SMARCA2^BD ternary complex (Homo sapiens, UniProt P51531)
Construct: P51531-2, residues 1373-1493 with additional N-terminal SM residues; GST (TEV site) (N); His6 (TEV site) (N, cleaved yes); made in house; host or cells: SMARCA2^BD: Escherichia coli BL21(DE3)
Sequence (P51531 with tags, fused parts or gaps isoform P51531-2): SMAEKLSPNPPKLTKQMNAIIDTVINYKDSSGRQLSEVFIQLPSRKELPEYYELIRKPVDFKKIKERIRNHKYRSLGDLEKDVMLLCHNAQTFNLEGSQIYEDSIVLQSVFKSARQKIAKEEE
Assay Overview: TR-FRET ternary complex affinity and cooperativity, SMARCA2
Type: binding
Protocol Conditions: TR-FRET competition for SMARCA2BD, without VCB; mean ± SD; read-out: TR-FRET SMARCA2BD EC50
Attribute Measured: EC50

Cc1ncsc1-c1ccc([C@H](COC(C)CN2CCC(c3ccc4c(c3)n(C3CCCC3)c3nc(=O)c5c(Br)cccc5n43)CC2)NC(=O)[C@@H]2C[C@@H](O)CN2C(=O)[C@@H](NC(=O)C2(N(C)C)CC2)C(C)(C)C)cc1 (stereo partly shown) : 150 nM
Nc1cccc2c1c(=O)nc1n(C3CCCC3)c3ccccc3n21 : 1770 nM
Cc1ncsc1-c1ccc([C@H](CCC(C)(C)CCN2CCC(c3ccc4c(c3)n(C3CCCC3)c3nc(=O)c5c(Br)cccc5n43)CC2)NC(=O)[C@@H]2C[C@@H](O)CN2C(=O)[C@@H](NC(=O)C2(F)CC2)C(C)(C)C)cc1 : 260 nM
Cc1ncsc1-c1ccc([C@H](CC[C@@H](C)CCN2CCC(c3ccc4c(c3)n(C3CCCC3)c3nc(=O)c5c(Br)cccc5n43)CC2)NC(=O)[C@@H]2C[C@@H](O)CN2C(=O)[C@@H](NC(=O)C2(F)CC2)C(C)(C)C)cc1 : 201 nM
Cc1ncsc1-c1ccc([C@H](CC[C@H](C)CCN2CCC(c3ccc4c(c3)n(C3CCCC3)c3nc(=O)c5c(Br)cccc5n43)CC2)NC(=O)[C@@H]2C[C@H](O)CN2C(=O)[C@@H](NC(=O)C2(F)CC2)C(C)(C)C)cc1 : 203 nM
Cc1ncsc1-c1ccc(CNC(=O)[C@@H]2C[C@@H](O)CN2C(=O)[C@@H](NC(=O)C2(F)CC2)C(C)(C)C)c(OCCOCCOCCOCCN2CCC(c3ccc4c(c3)n(C3CCCC3)c3nc(=O)c5c(Br)cccc5n43)CC2)c1 : 274 nM
Cc1ncsc1-c1ccc(CNC(=O)[C@@H]2C[C@H](O)CN2C(=O)[C@@H](NC(=O)C2(F)CC2)C(C)(C)C)c(OCCN2CCC(c3ccc4c(c3)n(C3CCCC3)c3nc(=O)c5c(Br)cccc5n43)CC2)c1 : 85 nM
Cc1ncsc1-c1ccc([C@H](CCCCN2CCC(c3ccc4c(c3)n(C3CCCC3)c3nc(=O)c5c(Br)cccc5n43)CC2)NC(=O)[C@@H]2C[C@@H](O)CN2C(=O)[C@@H](NC(=O)C2(F)CC2)C(C)(C)C)cc1 : 87 nM
Cc1ncsc1-c1ccc(CNC(=O)[C@@H]2C[C@@H](O)CN2C(=O)[C@@H](NC(=O)C2(F)CC2)C(C)(C)C)c(OCCCCN2CCC(c3ccc4c(c3)n(C3CCCC3)c3nc(=O)c5c(Br)cccc5n43)CC2)c1 : 98 nM
CN1CCC(c2ccc3c(c2)n(C2CCCC2)c2nc(=O)c4c(Br)cccc4n32)CC1 : 48 nM
